- Assay text: Prodrug conversion in C57BL/6 mouse liver assessed as Tmax of TFV metabolite at 10 mg/kg, po measured up to 24 hrs by LC-MS/MS analysis
- Format: ADME, organism-based
- Measurement setup: in vivo
Please provide measured Tmax for the entries that follow.
Give your result in h as a bare value.

Identify measured Tmax corresponding to C[C@H](Cn1cnc2c(N)ncnc21)OCP(=O)(O)OCCCOCCCCCCCCCCCCCCCC(F)(F)F.N 24

Provide one value: measured Tmax of C[C@H](Cn1cnc2c(N)ncnc21)OCP(=O)(O)OCCCOCCCCCCCCCCCCC#C[Si](C)(C)C.N 4

Output Tmax of CCCCCCCCCCCCCCCCOCCCOP(=O)(O)CO[C@H](C)Cn1cnc2c(N)ncnc21.N 17.3

Hello, please tell me recorded Tmax for this one: C[C@H](Cn1cnc2c(N)ncnc21)OCP(=O)(O)OCCCOCCCCCCCCCCCCCC#CC(F)(F)F.N 4
